- Test System: LC3B (UniProt Q9GZQ8 1-120)
- Assay Name: ITC; phosphorylated LIR peptide
Where no end group is shown, it is not given here.
Measurement Name: Kd (nM)
Write down the numeric answer in nM and omit the unit.

Req: Read the entry LDTDAEGDDFELLDQSELSQ (also: phosphorylated close to the LIR motif, residues not given here) [synthetic FAM134C-LIR peptide, phosphorylated form] and write its reported Kd.
Resp: 180
